The reported measurements were obtained from patent US20210388087A1.

Biological target: T1, cyno CD137 (cynomolgus monkey, UniProt Q07011 24-186 (human entry), limits assumed)
T1 construct: also called cynomolgus monkey CD137
T1 chain: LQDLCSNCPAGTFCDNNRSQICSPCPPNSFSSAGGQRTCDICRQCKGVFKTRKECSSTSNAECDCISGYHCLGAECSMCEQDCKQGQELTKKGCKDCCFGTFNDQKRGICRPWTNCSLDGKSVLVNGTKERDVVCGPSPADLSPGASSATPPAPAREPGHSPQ
Assay: SPR Biacore T200, IgG captured on protein A, 25 C;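 also: antigens diluted in ACES running buffer at pH 7.4 were flowed over antibodies held on a CM3 chip bearing amine-coupled protein A, with buffer alone serving as blank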
ENDPOINT: kon (M⁻¹ s⁻¹)
Please give a number only; it is taken to be in M⁻¹ s⁻¹.

BINDER: dBBDu183/L063 (antibody, V domains shown, IgG format; constant regions not specified) VH: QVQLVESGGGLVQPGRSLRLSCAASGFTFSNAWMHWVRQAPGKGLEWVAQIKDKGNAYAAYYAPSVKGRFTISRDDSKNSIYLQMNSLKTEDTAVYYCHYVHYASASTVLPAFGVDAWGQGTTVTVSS VL: DIVMTQSPLSLPVTPGEPASISCRSSQELVHTNRHTYLHWYQQKPGQAPRLLIYKVSNRFPGVPDRFSGSGSGTDFTLKISRVEAEDVGVYYCAQGTQVPFTFGQGTKLEIK
RECORDED NUMBER: 1470

BINDER: dBBDu193/L127 (antibody, V domains shown, IgG format; constant regions not specified; also called dBBDu_193 dBBDu.L127) VH: QVQLVESGGGLVQPGRSLRLSCAASGFTFSNAWMHWVRQAPGKGLEWVAQIKDRSNQYATYYAPSVKGRFTISRDDSKNSIYLQMNSLKTEDTAVYYCHYVHYSAASTLLPSFGVDAWGQGTTVTVSS VL: DIVMTQSPLSLPVTPGEPASISCRASEELLHINRHIFLHWYQQKPGQAPRLLIYKVYNRFTGVPDRFSGSGSGTDFTLKISRVEAEDVGVYYCAQGTSVPFTFGQGTKLEIK
RECORDED NUMBER: 112

Request: Bench note: what kon did dBBDu167/L094 (antibody, V domains shown, IgG format; constant regions not specified; also called dBBDu_167 dBBDu.L094) VH: QVQLVESGGGLVQPGRSLRLSCAASGFTFSNAWMHWVRQAPGKGLEWVAQIKDKGNLYAAYYAPSVKGRFTISRDDSKNSIYLQMNSLKTEDTAVYYCHYVHYASAGGGLPGFGVDAWGQGTTVTVSS VL: DIVMTQSPLSLPVTPGEPASISCYASEELLHINRHIYLHWYQQKPGQAPRLLIYKVYNRFNGVPDRFSGSGSGTDFTLKISRVEAEDVGVYYCAQGSSVPFTFGQGTKLEIK show?
Result: 10800
